The measurements presented in this section are drawn from ChEMBL document CHEMBL3351757.

Target: Histone deacetylase 4 (Homo sapiens, UniProt P56524)
Sequence (P56524 whole entry): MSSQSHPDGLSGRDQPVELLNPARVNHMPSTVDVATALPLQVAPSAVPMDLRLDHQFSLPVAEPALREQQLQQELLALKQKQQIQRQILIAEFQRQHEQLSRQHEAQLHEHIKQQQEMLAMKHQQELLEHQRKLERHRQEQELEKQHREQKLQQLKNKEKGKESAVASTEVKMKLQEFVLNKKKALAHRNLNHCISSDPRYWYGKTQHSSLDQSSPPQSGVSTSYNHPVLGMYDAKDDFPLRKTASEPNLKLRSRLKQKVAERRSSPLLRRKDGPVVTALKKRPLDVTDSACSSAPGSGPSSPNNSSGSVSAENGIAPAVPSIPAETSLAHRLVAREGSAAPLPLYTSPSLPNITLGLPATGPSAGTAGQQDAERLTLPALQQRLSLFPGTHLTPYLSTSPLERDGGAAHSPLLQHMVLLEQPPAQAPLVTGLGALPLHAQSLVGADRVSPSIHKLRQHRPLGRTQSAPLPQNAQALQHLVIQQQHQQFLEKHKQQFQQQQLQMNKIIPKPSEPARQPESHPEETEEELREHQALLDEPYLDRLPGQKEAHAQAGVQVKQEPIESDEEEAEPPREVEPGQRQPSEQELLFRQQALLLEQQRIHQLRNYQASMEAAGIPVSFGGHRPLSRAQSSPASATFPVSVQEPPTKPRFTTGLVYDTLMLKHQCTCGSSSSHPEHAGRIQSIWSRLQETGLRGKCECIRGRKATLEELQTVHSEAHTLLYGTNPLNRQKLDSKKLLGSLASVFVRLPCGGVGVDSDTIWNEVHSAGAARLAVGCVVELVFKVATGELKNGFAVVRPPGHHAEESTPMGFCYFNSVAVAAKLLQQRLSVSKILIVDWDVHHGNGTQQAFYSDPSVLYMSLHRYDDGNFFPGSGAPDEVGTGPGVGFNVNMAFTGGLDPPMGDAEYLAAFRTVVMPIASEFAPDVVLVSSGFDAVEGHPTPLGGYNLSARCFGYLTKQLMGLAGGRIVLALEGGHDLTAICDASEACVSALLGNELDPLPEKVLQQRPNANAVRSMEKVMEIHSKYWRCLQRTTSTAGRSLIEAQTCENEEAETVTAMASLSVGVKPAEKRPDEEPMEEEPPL
Please provide measured pIC50 for the entries that follow.
Lab note — pIC50 values are minus log10 of concentrations in M.

Identify the measured pIC50 of CC1(C)CC(=O)Nc2ccc(C(=O)NC[C@H]3CC[C@@H](/C=C/C(=O)NO)CC3)cc21 for Histone deacetylase 4 (Homo sapiens, UniProt P56524).
6.12

Give the reported pIC50 for CC1(C)CC(=O)Nc2ccc(C(=O)NC[C@H]3CC[C@H](/C=C/C(=O)NO)CC3)cc21 (system: Histone deacetylase 4 (Homo sapiens, UniProt P56524)).
7.24

Kindly state the measured pIC50 obtained for Cn1c(=O)ccc2cc(C(=O)NCCCCCCC(=O)NO)ccc21 with Histone deacetylase 4 (Homo sapiens, UniProt P56524).
7.07

Tell me reported pIC50 for CC1(C)CC(=O)Nc2ccc(C(=O)NCc3cccc(/C=C/C(=O)NO)c3)cc21 , tested with Histone deacetylase 4 (Homo sapiens, UniProt P56524).
5.70

Tell me reported pIC50 for CC1(C)CC(=O)Nc2ccc(C(=O)NC[C@H]3CC[C@H](CCC(=O)NO)CC3)cc21 , tested with Histone deacetylase 4 (Homo sapiens, UniProt P56524).
6.66

---

Kindly state pIC50 for each of the entries shown.
// scale note: pIC50 = -log10(conc_M); give the bare number

Identify the measured pIC50 of CC1(C)CC(=O)Nc2ccc(C(=O)NC[C@H]3CC[C@H](CCC(=O)NO)CC3)cc21 for Histone deacetylase 9 (Homo sapiens, UniProt Q9UKV0).
7.24

Request: pIC50, test system Histone deacetylase 9 (Homo sapiens, UniProt Q9UKV0), entry CC1(C)CC(=O)Nc2ccc(C(=O)NC[C@H]3CC[C@@H](/C=C/C(=O)NO)CC3)cc21
7.04

Quick check: pIC50 on Histone deacetylase 9 (Homo sapiens, UniProt Q9UKV0), item O=C(CCCCCCNC(=O)c1ccc2c(c1)CCC(=O)N2)NO ?
7.46

For Histone deacetylase 9 (Homo sapiens, UniProt Q9UKV0), provide pIC50 of Cn1c(=O)ccc2cc(C(=O)NCCCCCCC(=O)NO)ccc21 please.
7.39

Which measured pIC50 belongs to O=C(CCCCCCNC(=O)c1ccc2[nH]c(=O)ccc2c1)NO , tested on Histone deacetylase 9 (Homo sapiens, UniProt Q9UKV0)?
7.34

Give Histone deacetylase 9 (Homo sapiens, UniProt Q9UKV0) pIC50 for CC1(C)CC(=O)Nc2ccc(C(=O)NCCCCCCC(=O)NO)cc21
7.41

Notebook: pull reported pIC50 for Histone deacetylase 9 (Homo sapiens, UniProt Q9UKV0), entry COc1ccc2cc(C(=O)NCCCCCCC(=O)NO)ccc2n1
7.47

---

Give measured IC50 for each item. Keep answers brief.

Item: CC1(C)CC(=O)Nc2ccc(C(=O)NC[C@H]3CC[C@@H](CCC(=O)NO)CC3)cc21 Test system: Histone deacetylase 2 (Homo sapiens, UniProt Q92769) Read-out: IC50 Value: ?
25 nM

API: value(readout=IC50, system=Histone deacetylase 2 (Homo sapiens, UniProt Q92769)) for record O=C(CCCCCCC(=O)Nc1ccc2[nH]c(=O)ccc2c1)NO
45 nM

# returns recorded IC50 (system: Histone deacetylase 2 (Homo sapiens, UniProt Q92769)) for CN1C(=O)CC(C)(C)c2cc(C(=O)NCCCCCCC(=O)NO)ccc21
# Sequence (Q92769 whole entry): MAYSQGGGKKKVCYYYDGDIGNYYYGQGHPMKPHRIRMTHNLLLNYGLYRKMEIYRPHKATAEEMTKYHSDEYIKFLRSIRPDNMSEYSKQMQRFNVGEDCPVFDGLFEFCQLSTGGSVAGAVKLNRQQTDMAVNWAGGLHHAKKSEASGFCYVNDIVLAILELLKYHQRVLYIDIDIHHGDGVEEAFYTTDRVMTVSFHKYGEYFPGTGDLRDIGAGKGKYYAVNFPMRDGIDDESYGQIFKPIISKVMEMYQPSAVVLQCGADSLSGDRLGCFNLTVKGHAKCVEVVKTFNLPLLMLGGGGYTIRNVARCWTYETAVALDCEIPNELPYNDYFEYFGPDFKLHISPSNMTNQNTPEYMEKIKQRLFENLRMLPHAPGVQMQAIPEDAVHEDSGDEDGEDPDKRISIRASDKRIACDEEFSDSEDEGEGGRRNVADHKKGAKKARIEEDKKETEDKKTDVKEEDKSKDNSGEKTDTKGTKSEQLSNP
100 nM

Recorded IC50 for CC1(C)CC(=O)Nc2ccc(C(=O)NCCCCCCC(=O)NO)cc21 with Histone deacetylase 2 (Homo sapiens, UniProt Q92769), please?
93 nM
